Provide the reported IC50 of each item.
- assayed-system: IL-17RA/IL17RC dimerization induced by IL-17A (Homo sapiens)
- Sequence (Q16552 24-155): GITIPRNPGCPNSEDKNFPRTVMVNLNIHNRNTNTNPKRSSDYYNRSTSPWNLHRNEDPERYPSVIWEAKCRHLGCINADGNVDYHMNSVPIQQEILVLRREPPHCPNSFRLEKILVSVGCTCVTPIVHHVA
- assay-text: IL-17RA/IL17RC dimerization assay in response to IL-17A (PathHunter Cytokine Receptor Assay)
- Format: cell-based
- measurement-conditions: IL-17A at EC80; read-out: IC50 in IL-17RA/IL7RC dimerization assay
Residues, ends and D or L forms follow the SMILES beside them.

CC[C@H](C)[C@H](NC(C)=O)C(=O)N[C@@H](Cc1c[nH]cn1)C(=O)N[C@H](C(=O)N[C@H](C(=O)N[C@H](C(=O)N1CCC[C@H]1C(=O)N[C@@H](C)C(=O)N[C@@H](CC(=O)O)C(=O)N[C@@H](CC(C)C)C(=O)N[C@@H](Cc1c[nH]c2ccccc12)C(=O)N[C@@H](CC(=O)O)C(=O)N[C@@H](Cc1c[nH]c2ccccc12)C(=O)N[C@H](C(=O)N[C@@H](CCC(=O)O)C(=O)N[C@@H](CCCCN)C(N)=O)[C@@H](C)CC)[C@@H](C)CC)[C@@H](C)O)C(C)C [SEQ ID NO: 11] (Ac-IHVTIPADLWDWIEK-NH2) = < 400 nM
CC[C@H](C)[C@H](NC(C)=O)C(=O)N[C@@H](Cc1c[nH]cn1)C(=O)N[C@H](C(=O)N[C@H](C(=O)N[C@H](C(=O)N1CCC[C@H]1C(=O)N[C@@H](C)C(=O)N[C@@H](CC(=O)O)C(=O)N[C@H](C(=O)N[C@@H](Cc1c[nH]c2ccccc12)C(=O)N[C@@H](CC(=O)O)C(=O)N[C@@H](Cc1c[nH]c2ccccc12)C(=O)N[C@H](C(=O)N[C@@H](CC(N)=O)C(=O)N[C@@H](CCCCN)C(N)=O)[C@@H](C)CC)C(C)C)[C@@H](C)CC)[C@@H](C)O)C(C)C [SEQ ID NO: 204] (Ac-IHVTIPADVWDWINK-NH2) = < 10000 nM

For every item in the list below, what is its measured IC50?
1. CC(=O)N[C@H](C(=O)N[C@@H](Cc1c[nH]cn1)C(=O)N[C@@H](Cc1ccccc1)C(=O)N[C@H](C(=O)N[C@@H](Cc1ccccc1)C(=O)N1CCC[C@H]1C(=O)N[C@@H](CCC(N)=O)C(=O)N[C@@H](CC(=O)O)C(=O)N[C@@H](Cc1ccccc1)C(=O)N[C@@H](Cc1c[nH]c2ccccc12)C(=O)N[C@@H](CCC(=O)O)C(=O)N[C@@H](Cc1c[nH]c2ccccc12)C(=O)N[C@H](C(=O)N[C@@H](CCCNC(=N)N)C(=O)N[C@@H](CCCNC(=N)N)C(N)=O)C(C)C)[C@@H](C)O)C(C)C [SEQ ID NO: 125] (Ac-VHFTFPQDFWEWVRR-NH2)
2. CC[C@H](C)[C@H](NC(=O)[C@H](CCC(N)=O)NC(=O)[C@@H](NC(=O)[C@H](Cc1c[nH]cn1)NC(=O)[C@@H](NC(C)=O)C(C)C)C(C)C)C(=O)N1CCC[C@H]1C(=O)N[C@@H](C)C(=O)N[C@@H](CC(=O)O)C(=O)N[C@@H](CC(C)C)C(=O)N[C@@H](Cc1c[nH]c2ccccc12)C(=O)N[C@@H](CCC(=O)O)C(=O)N[C@@H](Cc1c[nH]c2ccccc12)C(=O)N[C@H](C(=O)N[C@@H](CCCNC(=N)N)C(=O)N[C@@H](CCCNC(=N)N)C(N)=O)C(C)C [SEQ ID NO: 113] (Ac-VHVQIPADLWEWVRR-NH2)

< 500 nM
< 500 nM

###

- assay-text: Isoelectric point, log D and log P (SiriusT3)
- Format: physicochemical
- measurement-conditions: octanol/ISA water; read-out: logP
Residues, ends and D or L forms follow the SMILES beside them.
observed-property: logP
Give bare numbers.

Form field: reported logP of CC[C@H](C)[C@H](NC(=O)[C@H](CCC(N)=O)NC(=O)[C@@H](NC(=O)[C@H](Cc1c[nH]cn1)NC(=O)[C@@H](NC(C)=O)C(C)C)C(C)C)C(=O)N1CCC[C@H]1C(=O)N[C@@H](C)C(=O)N[C@@H](CC(=O)O)C(=O)N[C@@H](CC(C)C)C(=O)N[C@@H](Cc1c[nH]c2ccccc12)C(=O)N[C@@H](CCC(=O)O)C(=O)N[C@@H](Cc1c[nH]c2ccccc12)C(=O)N[C@H](C(=O)N[C@@H](CCCNC(=N)N)C(=O)N[C@@H](CCCNC(=N)N)C(N)=O)C(C)C [SEQ ID NO: 113] (Ac-VHVQIPADLWEWVRR-NH2)
-0.13

###

- Type: physicochemical
- measurement-conditions: pH 7.8
Residues, ends and D or L forms follow the SMILES beside them.
observed-property: solubility

CC[C@H](C)[C@H](NC(=O)[C@@H](NC(=O)[C@@H](NC(=O)[C@H](Cc1c[nH]cn1)NC(=O)[C@@H](NC(C)=O)C(C)C)C(C)C)[C@@H](C)O)C(=O)N1CCC[C@H]1C(=O)N[C@@H](C)C(=O)N[C@@H](CC(=O)O)C(=O)N[C@@H](CC(C)C)C(=O)N[C@@H](Cc1c[nH]c2ccccc12)C(=O)N[C@@H](CCC(=O)O)C(=O)N[C@@H](Cc1c[nH]c2ccccc12)C(=O)N[C@@H](Cc1ccccc1)C(=O)N[C@@H](CCCNC(=N)N)C(=O)N[C@@H](CCCNC(=N)N)C(N)=O [SEQ ID NO: 121] (Ac-VHVTIPADLWEWFRR-NH2) = < 0.05 mM
CC[C@H](C)[C@H](NC(=O)[C@H](Cc1c[nH]c2ccccc12)NC(=O)[C@H](CC(=O)O)NC(=O)[C@H](Cc1c[nH]c2ccccc12)NC(=O)[C@H](CC(C)C)NC(=O)[C@H](CC(=O)O)NC(=O)[C@H](C)NC(=O)[C@@H]1CCCN1C(=O)[C@@H](NC(=O)[C@@H](NC(=O)[C@@H](NC(=O)[C@H](Cc1c[nH]cn1)NC(=O)[C@@H](NC(C)=O)C(C)C)C(C)C)[C@@H](C)O)[C@@H](C)CC)C(=O)N[C@@H](CC(N)=O)C(=O)N[C@@H](CCCCN)C(N)=O [SEQ ID NO: 2] (Ac-VHVTIPADLWDWINK-NH2) = > 10 mM
CC[C@H](C)[C@H](NC(C)=O)C(=O)N[C@@H](Cc1c[nH]cn1)C(=O)N[C@H](C(=O)N[C@H](C(=O)N[C@H](C(=O)N1CCC[C@H]1C(=O)N[C@@H](C)C(=O)N[C@@H](CC(=O)O)C(=O)N[C@@H](CC(C)C)C(=O)N[C@@H](Cc1c[nH]c2ccccc12)C(=O)N[C@@H](CC(=O)O)C(=O)N[C@@H](Cc1c[nH]c2ccccc12)C(=O)N[C@H](C(=O)N[C@@H](CCCNC(=N)N)C(=O)N[C@@H](CCCCN)C(N)=O)[C@@H](C)CC)[C@@H](C)CC)[C@@H](C)O)C(C)C [SEQ ID NO: 9] (Ac-IHVTIPADLWDWIRK-NH2) = > 10 mM

Pending compound:
I have this compound here, CC[C@H](C)[C@H](NC(C)=O)C(=O)N[C@@H](Cc1c[nH]cn1)C(=O)N[C@H](C(=O)N[C@H](C(=O)N[C@H](C(=O)N1CCC[C@H]1C(=O)N[C@@H](C)C(=O)N[C@@H](CC(=O)O)C(=O)N[C@@H](CC(C)C)C(=O)N[C@@H](Cc1c[nH]c2ccccc12)C(=O)N[C@@H](CC(=O)O)C(=O)N[C@@H](Cc1c[nH]c2ccccc12)C(=O)N[C@H](C(=O)N[C@@H](CCCNC(=N)N)C(=O)N[C@@H](CCCNC(=N)N)C(N)=O)C(C)C)[C@@H](C)CC)[C@@H](C)O)C(C)C [SEQ ID NO: 14] (Ac-IHVTIPADLWDWVRR-NH2) , and I need its recorded solubility.
> 10 mM

###

- assay-text: Isoelectric point, log D and log P (SiriusT3)
- Format: physicochemical
- measurement-conditions: pH 7.4, pH 7.4, octanol/ISA water; read-out: Log D (7.4)
Residues, ends and D or L forms follow the SMILES beside them.
Please provide measured logD for the entries that follow.
Numbers only.

CC[C@H](C)[C@H](NC(=O)[C@H](Cc1c[nH]c2ccccc12)NC(=O)[C@H](CCC(=O)O)NC(=O)[C@H](Cc1ccc(O)cc1)NC(=O)[C@H](CC(C)C)NC(=O)[C@H](CC(=O)O)NC(=O)[C@H](C)NC(=O)[C@@H]1CCCN1C(=O)[C@@H](NC(=O)[C@@H](NC(=O)[C@@H](NC(=O)[C@H](CCSC)NC(=O)[C@@H](NC(C)=O)C(C)C)C(C)C)[C@@H](C)O)[C@@H](C)CC)C(=O)N[C@@H](CCCNC(=N)N)C(=O)N[C@@H](CCCNC(=N)N)C(N)=O [SEQ ID NO: 17] (Ac-VMVTIPADLYEWIRR-NH2) = -3.68

# evaluate next
logD for CC[C@H](C)[C@H](NC(=O)[C@H](Cc1c[nH]c2ccccc12)NC(=O)[C@H](CCC(=O)O)NC(=O)[C@H](Cc1ccc(O)cc1)NC(=O)[C@H](CC(C)C)NC(=O)[C@H](CC(=O)O)NC(=O)[C@H](C)NC(=O)[C@@H]1CCCN1C(=O)[C@@H](NC(=O)[C@@H](NC(=O)[C@@H](NC(=O)[C@H](CCSC)NC(=O)[C@@H](NC(C)=O)C(C)C)C(C)C)[C@@H](C)O)[C@@H](C)CC)C(=O)N[C@@H](CCC(=O)O)C(=O)N[C@@H](CCC(=O)O)C(N)=O [SEQ ID NO: 18] (Ac-VMVTIPADLYEWIEE-NH2) ?
-3.79
